Cited source: patent US20230263907A1

Biological target: VEGFR2 (Homo sapiens)
Sequence (P35968 20-1356, species assumed): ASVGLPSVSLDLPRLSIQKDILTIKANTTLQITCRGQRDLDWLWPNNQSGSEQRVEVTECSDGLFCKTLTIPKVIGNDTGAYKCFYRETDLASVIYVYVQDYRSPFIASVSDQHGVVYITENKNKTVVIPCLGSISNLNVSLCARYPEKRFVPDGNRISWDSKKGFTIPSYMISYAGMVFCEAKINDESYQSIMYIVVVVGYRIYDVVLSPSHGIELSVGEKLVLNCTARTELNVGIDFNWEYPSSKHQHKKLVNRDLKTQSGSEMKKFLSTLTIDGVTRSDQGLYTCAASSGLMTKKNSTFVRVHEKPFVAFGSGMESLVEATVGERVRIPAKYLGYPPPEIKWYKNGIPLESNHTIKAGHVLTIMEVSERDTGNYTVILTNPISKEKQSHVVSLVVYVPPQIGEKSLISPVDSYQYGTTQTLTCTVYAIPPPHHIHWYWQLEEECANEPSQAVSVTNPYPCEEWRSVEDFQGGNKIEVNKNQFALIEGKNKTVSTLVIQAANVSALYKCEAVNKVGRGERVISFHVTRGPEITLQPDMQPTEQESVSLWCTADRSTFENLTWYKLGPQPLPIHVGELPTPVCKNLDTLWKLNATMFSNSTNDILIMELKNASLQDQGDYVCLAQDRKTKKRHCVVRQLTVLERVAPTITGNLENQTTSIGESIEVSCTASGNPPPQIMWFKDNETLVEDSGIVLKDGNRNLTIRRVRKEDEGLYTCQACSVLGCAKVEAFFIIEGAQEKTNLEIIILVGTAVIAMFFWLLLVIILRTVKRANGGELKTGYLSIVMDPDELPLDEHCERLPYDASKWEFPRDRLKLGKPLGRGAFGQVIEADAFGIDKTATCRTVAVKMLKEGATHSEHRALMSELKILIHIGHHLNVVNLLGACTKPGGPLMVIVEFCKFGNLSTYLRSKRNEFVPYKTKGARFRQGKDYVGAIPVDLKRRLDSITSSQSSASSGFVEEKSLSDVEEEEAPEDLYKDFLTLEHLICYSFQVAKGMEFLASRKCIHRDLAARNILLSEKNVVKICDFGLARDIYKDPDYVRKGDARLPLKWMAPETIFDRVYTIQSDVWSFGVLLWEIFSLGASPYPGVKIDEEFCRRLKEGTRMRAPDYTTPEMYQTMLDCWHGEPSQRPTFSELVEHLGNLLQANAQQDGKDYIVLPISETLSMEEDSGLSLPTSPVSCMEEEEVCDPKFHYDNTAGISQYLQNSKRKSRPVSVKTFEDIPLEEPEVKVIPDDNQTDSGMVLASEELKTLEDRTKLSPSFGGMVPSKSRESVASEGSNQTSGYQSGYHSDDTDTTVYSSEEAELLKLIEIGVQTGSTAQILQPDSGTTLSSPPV
Test: VEGFR2 IC50 values obtained from Selleckchem, Tocris Bioscience and TargetMol
Format: biochemical
Conditions: ratio of vendor IC50 values
For each of the compounds below, state its EGFR/VEGFR2 ratio.

Memo: COc1cc2nccc(Oc3ccc(NC(=O)Nc4ccc(F)cc4F)c(F)c3)c2cc1OC [Ki8751] , reported EGFR/VEGFR2 ratio: 2500

Lab note: measured EGFR/VEGFR2 ratio of CNC(=O)c1c(C)oc2cc(Oc3ncnc4cc(OC)c(OC)cc34)ccc12 [Fruquintinib] was 857

Per the record, O=C(Nc1cccc(C(F)(F)F)c1)c1cccc2cc(Oc3cc(CO)ncn3)ccc12 [BFH772] has EGFR/VEGFR2 ratio of 3333

Recorded result, O=C(Nc1ccc(OC(F)(F)F)cc1)c1sccc1NCc1ccnc2ccccc12 [OSI-930] , EGFR/VEGFR2 ratio: 1000

Field EGFR/VEGFR2 ratio (entry Cc1cc(F)c(Nc2ncnc3cc(OCc4ccccc4)ccc23)cc1O [ZM 323881] ) reads 25,000

Please fill in: EGFR/VEGFR2 ratio reported for COc1cc2c(Oc3ccc4[nH]c(C)cc4c3F)ccnc2cc1OCC1(N)CC1 [Anlotinib] = 10,000
